- ASSAY_TARGET: H^+ /K^+ -ATPase (Sus scrofa, UniProt P19156)
- Construct: a microsome fraction prepared from porcine gastric mucosa was used as a standard enzyme
- Sequence (P19156 2-1034 limits assumed): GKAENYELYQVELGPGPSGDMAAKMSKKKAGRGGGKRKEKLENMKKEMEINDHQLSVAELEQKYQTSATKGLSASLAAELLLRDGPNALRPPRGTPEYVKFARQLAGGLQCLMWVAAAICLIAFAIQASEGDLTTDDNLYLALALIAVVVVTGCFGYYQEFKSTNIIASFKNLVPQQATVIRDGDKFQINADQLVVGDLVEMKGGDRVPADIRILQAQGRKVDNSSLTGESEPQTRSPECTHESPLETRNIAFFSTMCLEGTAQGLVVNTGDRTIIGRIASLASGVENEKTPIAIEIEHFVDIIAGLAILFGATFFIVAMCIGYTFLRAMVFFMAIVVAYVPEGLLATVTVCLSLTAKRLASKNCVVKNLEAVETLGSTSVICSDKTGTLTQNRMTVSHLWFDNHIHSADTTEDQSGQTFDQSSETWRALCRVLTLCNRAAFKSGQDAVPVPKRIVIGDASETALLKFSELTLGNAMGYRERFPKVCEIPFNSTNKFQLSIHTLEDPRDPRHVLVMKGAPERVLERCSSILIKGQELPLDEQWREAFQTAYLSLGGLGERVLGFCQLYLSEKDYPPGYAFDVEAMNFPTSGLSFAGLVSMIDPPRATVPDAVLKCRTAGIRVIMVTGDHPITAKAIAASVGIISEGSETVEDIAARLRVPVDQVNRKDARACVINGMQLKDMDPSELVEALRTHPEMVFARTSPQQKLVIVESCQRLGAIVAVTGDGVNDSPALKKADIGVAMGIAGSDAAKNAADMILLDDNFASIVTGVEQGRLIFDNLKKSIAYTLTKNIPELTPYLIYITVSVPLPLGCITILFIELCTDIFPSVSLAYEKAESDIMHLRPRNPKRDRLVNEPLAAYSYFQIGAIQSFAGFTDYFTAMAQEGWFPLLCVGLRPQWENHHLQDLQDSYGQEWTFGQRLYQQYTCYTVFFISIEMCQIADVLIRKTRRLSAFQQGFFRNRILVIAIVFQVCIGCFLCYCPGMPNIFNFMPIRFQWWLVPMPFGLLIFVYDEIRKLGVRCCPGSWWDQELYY
- Sequence (P18434 whole entry partner): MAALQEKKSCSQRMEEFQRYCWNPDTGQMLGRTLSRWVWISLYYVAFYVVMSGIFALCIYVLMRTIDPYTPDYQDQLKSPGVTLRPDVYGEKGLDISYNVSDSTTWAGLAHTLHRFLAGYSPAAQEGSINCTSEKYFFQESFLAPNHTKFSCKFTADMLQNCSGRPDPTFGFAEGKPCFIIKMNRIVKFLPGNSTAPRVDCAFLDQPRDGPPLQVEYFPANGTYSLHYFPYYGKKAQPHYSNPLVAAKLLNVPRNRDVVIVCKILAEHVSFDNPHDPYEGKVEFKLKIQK
- ASSAY_EXPLANATION: Inhibitory Action on H^+ /K^+ -ATPase Activity
- REPORTED_CONDITIONS: microsome fraction from porcine gastric mucosa, pH7.4, 37° C., 30 min preincubation, 15 min reaction

| SMILES_NOTATION | IC50 / µM |
| --- | --- |
| CCc1cc2sccc2c2nc(-c3ccccc3C)c(N)n12 | 2.9 |
| Cc1ccccc1-c1nc2c3ccccc3c(OCc3ccccc3)cn2c1N | 4.8 |
| CCc1ccccc1-c1nc2c3ccccc3ccn2c1N=Cc1ccc(C)cc1 | 1.9 |
| CCCN(CC)c1c(-c2ccccc2C)nc2c3ccccc3ccn12 | 9.3 |
| Cc1ccccc1-c1nc2c3ccn(Cc4ccccc4)c3ccn2c1N | 8.8 |
| Cc1ccccc1-c1nc2c3ccccc3ccn2c1NCc1ccc2ccccc2c1Br | 8.8 |
| CCN(CCCl)c1c(-c2ccccc2C)nc2c3ccccc3ccn12 | 9.8 |
| Cc1cc2sccc2c2nc(-c3ccccc3)c(N)n12 | 20 |
| Cc1sccc1-c1nc2c3ccsc3cc(C)n2c1N | 6.6 |
| CCNc1c(-c2ccccc2C)nc2c3cccc(OCc4ccccc4)c3ccn12 | 5.8 |

###

- ASSAY_TARGET: H^+ /K^+ -ATPase (Sus scrofa)
- Construct: a microsome fraction prepared from porcine gastric mucosa was used as a standard enzyme
- ASSAY_EXPLANATION: Inhibitory Action on H^+ /K^+ -ATPase Activity
- REPORTED_CONDITIONS: microsome fraction from porcine gastric mucosa, pH7.4, 37° C., 30 min preincubation, 15 min reaction
pIC50: −log10 of the molar value.
// reported pIC50 for each item listed
PROPERTY_NAME: pIC50

| SMILES_NOTATION | RESULT |
| --- | --- |
| Cn1cccc1-c1nc2c3ccsc3ccn2c1N | 4.62 |
| Cc1sccc1-c1nc2c3ccccc3ccn2c1N | 4.77 |
| Cc1ccccc1-c1nc2c3sccc3cc(C)n2c1N | 5.10 |
| Cc1ccccc1-c1nc2c3ccccc3ccn2c1N | 4.59 |
| CCCN(CC)c1c(-c2cccc(C)c2)nc2c3ccccc3ccn12 | 5.62 |
| CCN(Cc1ccc(C)cc1)c1c(-c2ccccc2C)nc2c3ccccc3ccn12 | 5.44 |
| Cc1ccccc1-c1nc2c3cc(O)ccc3ccn2c1N | 5.72 |
| Cc1cc(-c2nc3c4ccsc4ccn3c2N)c(C)s1 | 5.92 |
| Cc1cc(-c2nc3c4ccccc4ccn3c2N)c(C)o1 | 5.25 |
| Cc1cc(O)ccc1-c1nc2n(c1N)CCc1ccccc1-2 | 4.48 |
| Cc1ccccc1-c1nc2n(c1N)CCc1ccccc1-2 | 4.76 |
| CCNc1c(-c2csc(Cl)c2C)nc2c3ccccc3ccn12 | 5.32 |
| C=CCN(CC=C)c1c(-c2ccccc2C)nc2c3ccccc3ccn12 | 5.35 |
| CCCN(CC)c1c(-c2ccccc2C)nc2c3sccc3ccn12 | 5.08 |
| Cc1sccc1-c1nc2c3ccsc3ccn2c1N | 5.35 |
| Cc1ccccc1-c1nc2c3ccccc3ccn2c1NCCC(C)C | 4.98 |
| Cc1ccccc1-c1nc2c3ccsc3c(C)c(C)n2c1N | 4.59 |

###

- ASSAY_TARGET: H^+ /K^+ -ATPase (Sus scrofa)
- Construct: a microsome fraction prepared from porcine gastric mucosa was used as a standard enzyme
- ASSAY_EXPLANATION: Inhibitory Action on H^+ /K^+ -ATPase Activity
- REPORTED_CONDITIONS: microsome fraction from porcine gastric mucosa, pH7.4, 37° C., 30 min preincubation, 15 min reaction
- Source text: Inhibitory Action on H^+ /K^+ -ATPase Activity According to the method of Hongo et al. [The Japanese Journal of Pharmacology, 52, p295, (1990)], a microsome fraction prepared from porcine gastric mucosa was used as a standard enzyme. […] Inorganic phosphate released during the reaction was calorimetrically determined according to the method of Fiske-Subbarow [The Journal of Biological Chemistry, 66, p375, (1925)]. […]
Decision: IC50 beneath 7 µM gives MET; IC50 meeting or exceeding 7 µM gives NOT MET.

| MOLECULE | LABEL_CLASS |
| --- | --- |
| Cc1ccccc1-c1nc2c3ccccc3c(CCC(C)C)cn2c1N [Compound 15] | MET |
| Cc1ccccc1-c1nc2c3ccccc3cc(C)n2c1N [Compound 9] | NOT MET |
| CCCNc1c(-c2ccccc2C)nc2c3ccccc3c(OC)cn12 [Compound 182] | NOT MET |
| CCN(CC)c1cccc2c1ccn1c(N)c(-c3ccccc3C)nc21 [Compound 54] | MET |
| Nc1c(-c2ccccc2Cl)nc2c3ccsc3ccn12 [Compound 232] | NOT MET |
